Test: Plasma stability assay, human plasma
Assay type: in vitro ADME
Conditions: 37° C., 6 h
Provide the reported Plasma Stability (% remaining, 6 h/24 h) Human of each item.

The following compounds have reported results that may help.
1. CC(=O)Nc1cccc(Cn2nc(C)c(NC(=O)c3ccc(COc4ccc(C(F)(F)F)cc4)cc3)c2C)c1 : 96%
2. CNC(=O)c1cccc(Cn2nc(C)c(NC(=O)c3ccc(COc4ccc(C(F)(F)F)cc4)cc3)c2C)c1 : 99%
3. CC(=O)Nc1cccc(Cn2nc(C)c(NC(=O)c3ccc(COc4ccc(C(F)(F)F)cc4C)cc3)c2C)c1 : 92%

Now consider a different compound.
Look up and state reported Plasma Stability (% remaining, 6 h/24 h) Human for "CNC(=O)c1cccc(Cn2nc(C)c(NC(=O)c3ccc(COc4ccc(C(F)(F)F)cc4C)cc3)c2C)c1"
98%
